Quick reference: IC50 of the listed items.
- Target Desc: 3CLpro (Severe acute respiratory syndrome coronavirus 2, UniProt P0DTD1)
- Assay Method Text: SARS-CoV-2 3CLpro protease assay (duplex, SAMDI-MS)
- Type: biochemical
- Set-up: For the duplex assay, 3CLpro and HRV3C was added
- Setup Conditions: 3CLpro, 30 mins preincubation, class symbols; read-out: SARS-Cov-2 IC50

Ask: Retrieve IC50 measured for "O=C(NCc1ccccc1)C(=O)[C@H](C[C@@H]1CCNC1=O)NC(=O)[C@@H]1[C@H]2CCC[C@H]2CN1C(=O)c1nc2ccccc2[nH]1" and print it.
Reply: 20 to 200 nM

---

Catalogue of compounds with associated EC50
- Test system: SARS-CoV-2-GHB-03021/2020
- Assay Method Text: microbe, parasite or virus in culture
- Assay type: cell-based
- Setup Conditions: Severe acute respiratory syndrome coronavirus 2, Vero C1008, 96 h; read-out: VeroE6 + CP (EC50)

Below, each entry is followed by its recorded EC50 result.
Compound	EC50
CC1(C)C[C@@H](C(=O)NC(C[C@@H]2CCNC2=O)C(=O)C(=O)NCc2ccccc2)N(C(=O)c2cc3ccccc3[nH]2)C1 (stereo partly drawn) [Compound 11]	10 to 100 µM
O=C(NC1CC1)C(=O)[C@H](C[C@@H]1CCNC1=O)NC(=O)[C@@H]1CC2(CCN1C(=O)c1cc3c(Cl)cccc3[nH]1)CC2 [Compound 145]	10 to 100 µM
COc1cc(Cl)c(Cl)c2[nH]c(C(=O)N3C[C@@H]4CCC[C@@H]4[C@H]3C(=O)N[C@@H](C[C@@H]3CCNC3=O)C(=O)CO)cc12 [Compound 158]	< 1 µM

Ask: State EC50 on SARS-CoV-2-GHB-03021/2020. Entry: COc1cccc2[nH]c(C(=O)N3C[C@@H]4CCCC[C@@H]4[C@H]3C(=O)N[C@@H](C[C@@H]3CCCNC3=O)C(=O)COCc3ccccc3)cc12 (single isomer, unassigned) [Compound 59A_1]
Reply: < 1 µM

Ask: Report measured EC50 on SARS-CoV-2-GHB-03021/2020; entry: O=C1NCC[C@H]1C[C@H](NC(=O)[C@@H]1[C@H]2CCC[C@H]2CN1C(=O)c1cc2c([nH]1)CCS2(=O)=O)C(=O)CO [Compound 159]
Reply: 10 to 100 µM

Ask: # return EC50 of COc1cccc2[nH]c(C(=O)N3C[C@@H]4CCC[C@@H]4[C@H]3C(=O)N[C@@H](C[C@@H]3CCNC3=O)C(=O)C(=O)N(C)C)cc12 [Compound 110] (system: SARS-CoV-2-GHB-03021/2020)
Reply: > 50 µM
